Ref: paper PMC11542179

- subject_of_test: MSI1 RRM1-RRM2 tandem (Homo sapiens, UniProt O43347 1-200)
- Sequence (O43347 1-200): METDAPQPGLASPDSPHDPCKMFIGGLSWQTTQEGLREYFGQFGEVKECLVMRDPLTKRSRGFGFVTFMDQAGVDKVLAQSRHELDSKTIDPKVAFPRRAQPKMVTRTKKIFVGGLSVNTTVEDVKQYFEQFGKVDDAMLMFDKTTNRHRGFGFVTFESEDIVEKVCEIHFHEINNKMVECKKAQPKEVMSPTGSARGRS
- assay_comment: SPR; KD1 monovalent step, new model; SPR, 3'-biotinylated RNA immobilized on dextran sensor chip, protein as analyte; running buffer, salt, pH and temperature not in the material
- test_settings: protein: recombinant; label: 3'-biotin; linear
property_measured: Kd (nM)

| binder | property_measured | value_reported |
| --- | --- | --- |
| UUGUCAGUUACCCCUU (ssRNA) [RNA-L1a] | Kd | 1170 |
